- Test system: human lung cancer strain NCI-H441
- experiment.summary: NCI-H441 cell proliferation inhibitory activity (CellTiter-Glo, 4 days)
- Assay type: cell-based
- assay.conditions: 50% proliferation inhibitory concentration, four days, read-out: NCl-H441 IC50
For each entry below, report its IC50 value.
# unit: nM | format: bare number

Request: Input "CCO[C@@H]1C[C@H]2C(=O)NC3(CCC3)C(=O)N(C)[C@@H](C3CCCC3)C(=O)N(C)[C@H](C(=O)N(C)C)CC(=O)N(C)[C@@H](Cc3ccccc3C#N)C(=O)N[C@@H]([C@@H](C)CC)C(=O)N(C)CC(=O)N(C)[C@H]3CCCCCN(C3=O)[C@@H](Cc3ccc(C(F)(F)F)cc3)C(=O)N(C)CC(=O)N[C@@H](CCc3cc(F)c(C(F)(F)F)c(F)c3)C(=O)N2C1" , output reported IC50.
Response: 118

Request: Input "CC[C@H](C)[C@@H]1NC(=O)[C@H](CC)N(C)C(=O)C[C@@H](C(=O)N(C)C)N(C)C(=O)[C@H](C2CCCC2)N(C)C(=O)C2(CCC2)NC(=O)[C@@H]2CC(F)(F)CN2C(=O)[C@H](CCc2cc(F)c(C(F)(F)F)c(F)c2)NC(=O)CN(C)C(=O)[C@H](Cc2ccc(C(F)(F)F)cc2)N2CC/C=C\C[C@@H](C2=O)N(C)C(=O)CN(C)C1=O" , output reported IC50.
Response: 10.2

Request: Input "CC[C@H](C)[C@@H]1NC(=O)[C@H](CC)N(C)C(=O)C[C@@H](C(=O)N(C)C)N(C)C(=O)[C@H](C2CCCC2)N(C)C(=O)C2(CCC2)NC(=O)[C@@H]2C[C@@H](C(F)(F)F)CN2C(=O)[C@H](CCc2cc(F)c(C(F)(F)F)c(F)c2)NC(=O)CN(C)C(=O)[C@H](CC2CCC(F)(F)CC2)N2CC/C=C\C[C@@H](C2=O)N(C)C(=O)CN(C)C1=O" , output reported IC50.
Response: 61.1

Request: Input "CC[C@H](C)[C@@H]1NC(=O)[C@H](CC)N(C)C(=O)C[C@@H](C(=O)N2CCOCC2)N(C)C(=O)[C@H](C2CCCC2)N(C)C(=O)C2(CCCC2)NC(=O)[C@@H]2CCCN2C(=O)[C@H](CCc2cc(F)c(C(F)(F)F)c(F)c2)NC(=O)CN(C)C(=O)[C@H](Cc2ccc(C(F)(F)F)cc2)N2C[C@H](C)[C@H](C)C[C@@H](C2=O)N(C)C(=O)CN(C)C1=O" , output reported IC50.
Response: 4.2
